# Target of assay: Glucose transporter (Leishmania mexicana) (UniProt O61059)
# Assay info: ST_JUDE_LEISH: Cytotoxicity at 2uM final concentration against transgenic Leishmania Mexicana promastigotes LmGT2 that are glucose transport deficient and complemented with the L. Mexicana glucose transporter 2. Activity is measured by DNA content using SYBR green in vitro
# Type: functional
Reported inhibition by item:

>  <Molecule>
O=C(N[C@H]1CCN(Cc2ccc(OCCN3CCNCC3)c3ccccc23)C1)c1ccc(Cl)c(Cl)c1

>  <Target of assay>
Glucose transporter (Leishmania mexicana) (UniProt O61059)

>  <inhibition (%)>
2.91

$$$$
>  <Molecule>
CCCCOc1ccccc1C(=O)NCc1csc(-c2ccccc2)n1

>  <Target of assay>
Glucose transporter (Leishmania mexicana) (UniProt O61059)

>  <inhibition (%)>
0.41

$$$$
>  <Molecule>
CCOc1ccc(-c2nonc2NC(=O)c2ccccc2F)cc1OCC

>  <Target of assay>
Glucose transporter (Leishmania mexicana) (UniProt O61059)

>  <inhibition (%)>
1.47

$$$$
>  <Molecule>
CCn1c(C=Cc2cc(Br)ccc2O)nc2ccccc2c1=O

>  <Target of assay>
Glucose transporter (Leishmania mexicana) (UniProt O61059)

>  <inhibition (%)>
0.51

$$$$
>  <Molecule>
COc1cc(OC)c(NC(=O)C2c3ccccc3C(=O)N(C)C2c2cccs2)cc1Cl (stereo not given)

>  <Target of assay>
Glucose transporter (Leishmania mexicana) (UniProt O61059)

>  <inhibition (%)>
5.98

$$$$
>  <Molecule>
CN1CCC(NCCS(=O)(=O)c2cccc(Nc3ccc(-c4cccc(F)c4)cn3)c2)CC1

>  <Target of assay>
Glucose transporter (Leishmania mexicana) (UniProt O61059)

>  <inhibition (%)>
-0.71

$$$$
>  <Molecule>
CC1(CCN2CCC(c3c[nH]c4cnccc34)CC2)CCCc2c(Br)cccc2C1=O (stereo not given)

>  <Target of assay>
Glucose transporter (Leishmania mexicana) (UniProt O61059)

>  <inhibition (%)>
95.5

$$$$
>  <Molecule>
Cc1cc(N[C@@H](Cc2ccccc2)C(=O)Nc2ccccc2)nc(NCCc2ccccc2)n1

>  <Target of assay>
Glucose transporter (Leishmania mexicana) (UniProt O61059)

>  <inhibition (%)>
0.11

$$$$
>  <Molecule>
N#CC1(CCCNCCc2ccc(O)cc2)CCCc2c(O)cccc21 (stereo not given)

>  <Target of assay>
Glucose transporter (Leishmania mexicana) (UniProt O61059)

>  <inhibition (%)>
11.7

$$$$
>  <Molecule>
CC(C)(C)OC(=O)NCc1ccc(Nc2nnc(-c3ccc(OCC(=O)NCc4ccc(C(C)(C)C)cc4)c([N+](=O)[O-])c3)o2)cc1

>  <Target of assay>
Glucose transporter (Leishmania mexicana) (UniProt O61059)

>  <inhibition (%)>
-0.53

$$$$

* * *

# Target of assay: Glucose transporter (Leishmania mexicana)
# Assay info: ST_JUDE_LEISH: Cytotoxicity at 2uM final concentration against transgenic Leishmania Mexicana promastigotes LmGT2 that are glucose transport deficient and complemented with the L. Mexicana glucose transporter 2. Activity is measured by DNA content using SYBR green in vitro
# Assay type: functional

>  <Compound>
CCN(CCCN1CCCCC1)c1cc(C)nc(Nc2ccc(C)cc2)n1

>  <inhibition, %>
0.31

$$$$
>  <Compound>
CCC(=O)NC(c1ccco1)c1cc(Cl)c2cccnc2c1O (stereo not given)

>  <inhibition, %>
10.7

$$$$
>  <Compound>
COc1cccc2c(Oc3ccccc3C)ccnc12

>  <inhibition, %>
0.33

$$$$
>  <Compound>
Cc1ccc(C)c(S(=O)(=O)Nc2ccc(Br)cc2C(=O)Nc2cccc(C(F)(F)F)c2)c1

>  <inhibition, %>
-1.9

$$$$
>  <Compound>
NCc1ccc(CNCc2ccc(-c3ccc(-c4nc5cc(C(F)(F)F)ccc5[nH]4)s3)cc2)cc1

>  <inhibition, %>
0.6

$$$$

* * *

// values below are reported inhibition
# Target of assay: Glucose transporter (Leishmania mexicana)
# Assay info: ST_JUDE_LEISH: Cytotoxicity at 2uM final concentration against transgenic Leishmania Mexicana promastigotes LmGT2 that are glucose transport deficient and complemented with the L. Mexicana glucose transporter 2. Activity is measured by DNA content using SYBR green in vitro
# Format: functional

>  <Compound>
CC1CCc2sc(-c3nnc(SC(C)C(=O)NC4CC4)o3)cc2C1 (stereo not given)

>  <Units text>
%

>  <inhibition>
1.25

$$$$
>  <Compound>
O=C(NCc1ccc(C(F)(F)F)cc1)c1cccc(-c2nnc(-c3cccc(-c4cncnc4)c3)o2)c1

>  <Units text>
%

>  <inhibition>
4.68

$$$$
>  <Compound>
Cn1c(=O)c2cc(C(=O)NCCCN3CCCCCC3)sc2c2ccccc21

>  <Units text>
%

>  <inhibition>
5.05

$$$$
>  <Compound>
CN(C)CCN(C)Cc1ccc(-c2cccc(NC(=O)c3ccc(Cl)cc3)c2)cc1

>  <Units text>
%

>  <inhibition>
1.03

$$$$
>  <Compound>
Cc1ccc(C)c(Sc2ccc(NC(=O)CN3CCN(C(=O)c4ccco4)CC3)cc2)c1

>  <Units text>
%

>  <inhibition>
0.17

$$$$

* * *

# Target of assay: Hexose transporter 1 (Plasmodium falciparum) (UniProt O97467)
# Assay info: ST_JUDE_LEISH: Cytotoxicity at 2uM final concentration against transgenic Leishmania Mexicana promastigotes LmPfHT that are glucose transport deficient and complemented with the Plasmodium falciparum hexose transporter. Activity is measured by DNA content using SYBR green in vitro
# Type: functional

>  <Molecule>
CS(=O)(=O)c1ccc2[nH]c(-c3cc(-c4cccc(F)c4)cnc3N)nc2c1

>  <Units text>
%

>  <inhibition>
3.53

$$$$
>  <Molecule>
Cc1cc(Cl)c(S(=O)(=O)NC(C)(C)C)cc1OCC(=O)NC1CCCCC1

>  <Units text>
%

>  <inhibition>
0.93

$$$$
>  <Molecule>
COCCn1c(C)cc(C(=O)CN2C(=O)NC(C)(c3ccc(C(C)(C)C)cc3)C2=O)c1C (stereo not drawn)

>  <Units text>
%

>  <inhibition>
1.07

$$$$
>  <Molecule>
O=C(N[C@@H](CC1CCCCC1)C(=O)NCCN1CCCC1)c1ccc(O)c(-c2ccc(Cl)c(Cl)c2)c1

>  <Units text>
%

>  <inhibition>
0.41

$$$$
>  <Molecule>
CC(C)N1CCC(N(Cc2ccc(-c3ccc(C(F)(F)F)cc3)cc2)C(=O)Cn2c(CCc3cccc(F)c3F)cc(=O)c3c2CCC3)CC1

>  <Units text>
%

>  <inhibition>
4.34

$$$$
>  <Molecule>
CC(C)(C)C(=O)Oc1ccc(CC2NCCc3cc(OC(=O)C(C)(C)C)c(OC(=O)C(C)(C)C)cc32)cc1OC(=O)C(C)(C)C (stereo not drawn)

>  <Units text>
%

>  <inhibition>
9.32

$$$$
>  <Molecule>
CCN(CC)CCN(Cc1ccc(-c2ccc(C(F)(F)F)cc2)cc1)C(=O)Cn1c(CCc2cc(F)cc(F)c2)nc(=O)c2ccccc21

>  <Units text>
%

>  <inhibition>
1.07

$$$$
>  <Molecule>
COc1ccccc1CCNc1nc(C)cc(N[C@@H](Cc2ccccc2)C(=O)NCc2cccs2)n1

>  <Units text>
%

>  <inhibition>
2.49

$$$$

* * *

Recorded inhibition for the following molecules
# Target of assay: Hexose transporter 1 (Plasmodium falciparum)
# Assay info: ST_JUDE_LEISH: Cytotoxicity at 2uM final concentration against transgenic Leishmania Mexicana promastigotes LmPfHT that are glucose transport deficient and complemented with the Plasmodium falciparum hexose transporter. Activity is measured by DNA content using SYBR green in vitro
# Format: functional

>  <Molecule>
CCOc1cc(NCCCNc2ncc([N+](=O)[O-])cc2C)nc2ccccc12

>  <inhibition / %>
-1.69

$$$$
>  <Molecule>
OCC1CCN(Cc2ccc(-c3cccc(-c4nc5ccccc5[nH]4)c3)cc2)CC1

>  <inhibition / %>
1.08

$$$$
>  <Molecule>
CN(C)c1ccc(CN2CCC(NC(=O)c3ccc(-c4ccccc4F)s3)CC2)cc1

>  <inhibition / %>
-1.02

$$$$
>  <Molecule>
CN(Cc1cc(C(F)(F)F)cc(C(F)(F)F)c1)C(=O)C1CNCC1c1ccc(F)cc1 (stereo not given)

>  <inhibition / %>
5.75

$$$$
>  <Molecule>
COc1ccc2nccc(N3CCC(CCNCc4cc5c(cn4)OCCO5)CC3)c2c1

>  <inhibition / %>
8

$$$$
>  <Molecule>
COc1cc(Nc2ccnc3cc(-c4nccs4)ccc23)ccc1OCCCc1nc2ccccc2[nH]1

>  <inhibition / %>
4.2

$$$$
>  <Molecule>
CCN(CC)Cc1cc(Nc2ccnc3cc(Cl)ccc23)ccc1O

>  <inhibition / %>
2.29

$$$$
>  <Molecule>
Cc1ccccc1C(=O)NC(NC(=S)Nc1ccc([N+](=O)[O-])cc1)C(Cl)(Cl)Cl (stereo not given)

>  <inhibition / %>
-1.37

$$$$
>  <Molecule>
COc1cc2c(cc1S(=O)(=O)c1ccc(NC(=O)c3cc4ccccc4s3)cc1)CCN(C)CC2

>  <inhibition / %>
3.2

$$$$
>  <Molecule>
COc1ccc(NCCCNc2ccnc3ccccc23)cc1

>  <inhibition / %>
4.48

$$$$
